- SUBJECT OF TEST: T1, UNK ZnF1-3 (human, UniProt Q9C0B0 31-174)
- T1 sequence: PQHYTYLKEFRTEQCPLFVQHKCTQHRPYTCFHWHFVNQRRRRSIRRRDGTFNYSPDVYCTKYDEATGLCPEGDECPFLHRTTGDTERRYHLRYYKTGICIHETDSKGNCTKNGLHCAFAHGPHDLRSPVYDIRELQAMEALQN
- ASSAY TEXT: nsRBNS (natural sequence RNA bind-n-seq); RBNS binding buffer (assumed for nsRBNS): 25 mM Tris pH 7.5, 150 mM KCl, 3 mM MgCl2, 0.01% Triton X-100, 500 ug/ml BSA, 20 U/ml SUPERase-In, 4 C; UNK is unkempt and MSI1 is Musashi-1; names of the RNAs are library labels; protein concentration not given here; high values mean tight binding
In all, about 24,000 sequences were measured (“enrichment r”: median about 0.99, highest 2% from about 3.7 on). Shown is part of a subset that was picked to be rich in the highest values.
The entries below are paired with their reported binding signal.
OBSERVABLE: binding signal (enrichment R)

>>> observed_result("chr4:125586161:125586162:-_ENSG00000151458_ENST00000504087|hu_hu|motif|central (ssRNA) RNA: GGGAGUUCUACAGUCCGACGAUCUUGUGUAGUGGCAACAGCUGAUUUAUAAAAUUUAAAGAUUUUAAUUUCAAAAAUAUCGGUUAAGGAGUUUUAUAUUUGGAGGACAAUUUUUACUUUUUAAUGGAGCAGAAGCCAUUUUCACAACAGAGGAUUGAGCAUCA")
4.45
>>> observed_result("24223610_24223730_1957_3pUTR_ENSG00000173960_ENST00000309033|human|control|control (ssRNA) RNA: GGGAGUUCUACAGUCCGACGAUCUUUUGAAAGAAAAUAAAAUGGAAAGGGAAUAGGCUUUUUAGAAAGAUAAUUUUCUUUUAUUACAUUUUUAUAAAGUGUAGAAAUGUGAGUAGGCAGAUUAAUCUUGAUACUAUACUGAGCCAACAGAGGAUUGAGCAUCA")
3.4
>>> observed_result("chrX:147030410:147030411:+_ENSG00000102081_ENST00000218200|hu_mus|FALSE|FALSE (ssRNA) RNA: GGGAGUUCUACAGUCCGACGAUCACUUCAUGCCCUGUGCCAUCUUGCCUACUAUUUGUCUUUGGCCUAACAAAGUUUUCUAAAAUGGAGUAAGAAUUACGGAAAUGGUAGAGGAAAUAUAACUUCGGAAUUAUGUAGCUUAUUCAACAGAGGAUUGAGCAUCA")
1.78
